subject-of-test: T1, 4H63-AA
T1 chain: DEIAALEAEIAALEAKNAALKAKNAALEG
assay-protocol: two-hybrid library CCmax;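 further: natural log of median RNA to DNA barcode read ratio; higher means stronger binding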
condition-info: mean of both orientations
metric: interaction score

Example entries and their recorded answers appear below.
DKNAALEAEIAALEAKNAALKAEIAALEG [4H3129-AA] = -2.14
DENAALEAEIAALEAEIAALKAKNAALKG [4H1040-AA] = -1.26
DEIAALEAKNAALEAKIAALKAKNAALKG [4H432-AA] = -1.92

1 = DKNAALKAEIAALEAEIAALKAENAALEG [4H3595-AA]
2 = DEIAALEAKNAALEAKNAALKAKIAALKG [4H446-AA]
stdin: Look at 1 and 2 . Which one has the lower recorded interaction score number? Please reply using the label of the selected record.
stdout: 2
(2: -1.67, 1: -0.914)

P = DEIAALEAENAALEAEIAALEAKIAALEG [4H133-AA]
Q = DENAALEAKIAALKAKIAALEAKNAALKG [4H1384-AA]
R = DKIAALKAKIAALKAENAALEAKNAALEG [4H2903-AA]
S = DKNAALKAKIAALKAEIAALKAENAALEG [4H3915-AA]
stdin: Hey, can you sort those binders up there by interaction score, smallest first? Could you list the labels in the order requested?
stdout: P, Q, S, R

P = DKIAALKAENAALEAEIAALKAENAALEG [4H2699-AA]
Q = DENAALKAEIAALEAENAALEAKIAALKG [4H1558-AA]
stdin: Sorting ascending by interaction score, which comes first: P or Q ? Response format: the label of the selected entry.
stdout: P

Every entry's value here was drawn from paper PMC10397247.
